Reference for the values: PubChem BioAssay (Tox21)

# Protocol Details: qHTS assay to identify small molecule agonists of the farnesoid-X-receptor (FXR) signaling pathway - cell viability counter screen (AID 743218); further: nearly all actives have a fitted effect of over 45% in size
# Experimental Conditions: FXR-bla HEK293T viability, CellTiter-Glo luminescence, 16 h; series mostly up to 62.6 µM
Records with an inconclusive call do not appear. The source made the active and inactive calls. The call rests on the fitted dose curve; in most records, active means well fitted cell-killing curve with a large enough effect in the repeat runs; inconclusive means weak or mixed curves, or effect the other way; inactive means no such curve, though single readings can be large or run the other way.

{"Molecule": "CC(=O)CC(c1ccccc1)c1c(O)c2ccccc2oc1=O (stereo not drawn)", "outcome": "inactive"}
{"Molecule": "CC(=O)C(=O)O", "outcome": "inactive"}
{"Molecule": "CCCCOC(=O)c1ccc(O)cc1", "outcome": "inactive"}

---

# Protocol Details: qHTS assay to identify small molecule antagonists of the peroxisome proliferator-activated receptor delta (PPARd) signaling pathway - cell viability counter screen (AID 743213); further: nearly all actives have a fitted effect of over 50% in size
# Experimental Conditions: PPARd-bla HEK293H viability, CellTiter-Glo luminescence, 17 h; series mostly up to 62 µM
Records with an inconclusive call do not appear. Calls of active or inactive are those of the source. The call rests on the fitted dose curve; in most records, active means well fitted cell-killing curve with a large enough effect in the repeat runs; inconclusive means weak or mixed curves; inactive means no such curve, though single readings can be large or run the other way.
Labels: TRUE for active, FALSE for inactive

{"Compound": "Cc1ncc([N+](=O)[O-])n1CCO", "Class Name": "FALSE"}
{"Compound": "Cc1cc(=O)oc2cc(O)ccc12", "Class Name": "FALSE"}
{"Compound": "Cn1c(=O)c2c(ncn2C)n(C)c1=O", "Class Name": "FALSE"}
{"Compound": "CC1(C)S[C@@H]2[C@H](NC(=O)[C@H](N)c3ccccc3)C(=O)N2[C@H]1C(=O)O", "Class Name": "FALSE"}
{"Compound": "COc1ccc2c(c1)c(CC(=O)O)c(C)n2C(=O)c1ccc(Cl)cc1", "Class Name": "FALSE"}
{"Compound": "NS(=O)(=O)c1cc2c(cc1Cl)NCNS2(=O)=O", "Class Name": "FALSE"}
{"Compound": "O=c1[nH]cnc2c1ncn2[C@H]1CC[C@@H](CO)O1", "Class Name": "FALSE"}
{"Compound": "CS(=O)(=O)OCCCCOS(C)(=O)=O", "Class Name": "FALSE"}
{"Compound": "NC(=O)c1cccnc1", "Class Name": "FALSE"}
{"Compound": "Cc1ccc(S(=O)(=O)O)cc1", "Class Name": "FALSE"}
{"Compound": "O=CC(=O)c1ccccc1", "Class Name": "FALSE"}
{"Compound": "CC(=O)CCC(=O)O", "Class Name": "FALSE"}
{"Compound": "CC(C)NCC(O)c1ccc(O)c(O)c1 (stereo not given)", "Class Name": "FALSE"}
{"Compound": "O=C1OC2(c3ccccc31)c1cc(Br)c(O)c(Br)c1Oc1c2cc(Br)c(O)c1Br", "Class Name": "FALSE"}
{"Compound": "O=C(O)CC(O)C(=O)O (stereo not given)", "Class Name": "FALSE"}
{"Compound": "O=C1NC(=O)C(c2ccccc2)(c2ccccc2)N1", "Class Name": "FALSE"}
{"Compound": "CCCCCCc1ccc(O)cc1O", "Class Name": "FALSE"}
{"Compound": "C=C1CC[C@H](O)C/C1=C\\C=C1/CCC[C@]2(C)[C@@H]([C@H](C)CCCC(C)C)CC[C@@H]12", "Class Name": "TRUE"}
{"Compound": "CCCc1cc(=O)[nH]c(=S)[nH]1", "Class Name": "FALSE"}
{"Compound": "C[C@](N)(Cc1ccc(O)c(O)c1)C(=O)O", "Class Name": "FALSE"}
{"Compound": "CN1[C@@H]2CC(OC(=O)[C@H](CO)c3ccccc3)C[C@H]1[C@@H]1O[C@@H]12 (stereo not given in full)", "Class Name": "FALSE"}
{"Compound": "CNNCc1ccc(C(=O)NC(C)C)cc1", "Class Name": "FALSE"}
{"Compound": "CCCCC(CC)C(=O)O (stereo not given)", "Class Name": "FALSE"}
{"Compound": "CCN(Cc1c(F)cccc1Cl)c1c([N+](=O)[O-])cc(C(F)(F)F)cc1[N+](=O)[O-]", "Class Name": "TRUE"}
{"Compound": "COc1cccc(O)c1O", "Class Name": "FALSE"}
